We begin with a simple list: items and their reported LogP.
# ASSAY COMMENT: LogP by shake-flask method (n-octanol/phosphate buffer)
# CONDITION: pH 7.4
Please give the numeric answer without any surrounding text.

>>> print(df.to_string())
                               input_smiles  assay_readout  observed_measurement
0  COC(=O)c1n[n]([Pt+])nc1C(=O)OC.F[P-](F)(F)(F)(F)F.c1ccc(-c2cccc(-c3ccccn3)n2)nc1           LogP                 -1.80

Pending compound:
### Prompt I would be grateful if you could share the reported LogP for COC(=O)c1n[n]([Ir+][c]2ccccc2-c2ccccn2)nc1C(=O)OC.F[P-](F)(F)(F)(F)F.c1ccc(-c2cccc(-c3ccccn3)n2)nc1 .
### Response -1.02

---

# System: HaCat (non-cancer skin) cells
# ASSAY COMMENT: Cell viability (DAPI nuclei count)
# Type: cell-based, human
# CONDITION: 48 h
# Method: To determine the relative viability, after incubation cells were fixed and stained with DAPI and the number of nuclei per well determined using a CeligoTM Image Cytometer (Figure S52 to S60). […] Viable cells were counted using 377 nm excitation and 447 nm emission filters on the CeligoTM Image Cytometer. The number of nuclei per well was determined using the Direct Cell Count analysis from the CeligoPro Sofware […] […]
We begin with a simple list: items and their reported pIC50.
// pIC50 here means minus log10 of the molar concentration (mol/L)

MOLECULE	pIC50
O=C1N[C@H]2[C@H](CS[C@H]2CCCCC(=O)c2n[n]([Pt][c]3c(-c4ccccn4)cccc3-c3ccccn3)nc2-c2ccccc2)N1 [Compound 14, [Pt(triazolatoC6H5,biotin)(dpb)]]	4.99
COC(=O)c1n[n]([Pt+])nc1C(=O)OC.F[P-](F)(F)(F)(F)F.c1ccc(-c2cccc(-c3ccccn3)n2)nc1	4.81
F[P-](F)(F)(F)(F)F.O=C1N[C@H]2[C@H](CS[C@H]2CCCCC(=O)c2n[n]([Pt+][c]3cccc(-c4cccc(-c5ccccn5)n4)n3)nc2-c2ccccc2)N1 [Compound 16, [Pt(triazolatoC6H5,biotin)(terpy)]PF6]	4.85

Pending molecule:
### Prompt // map CC(=O)c1n[n]([Au][PH](c2ccccc2)(c2ccccc2)c2ccccc2)nc1-c1ccccc1 [Compound 11, [Au(triazolatoC6H5,COCH3)(PPh3)]] to recorded pIC50 (system: HaCat (non-cancer skin) cells)
### Response 5.21

---

# MEASURED ON: streptavidin (Streptomyces avidinii, UniProt P22629)
# Sequence (P22629 25-183, species assumed): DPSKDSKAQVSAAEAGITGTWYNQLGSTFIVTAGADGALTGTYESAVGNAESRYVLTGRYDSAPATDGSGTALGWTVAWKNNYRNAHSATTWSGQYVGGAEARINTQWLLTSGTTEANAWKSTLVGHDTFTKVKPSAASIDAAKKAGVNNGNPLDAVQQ
ASSAY READOUT: Kd (µM)
Only the number, expressed in µM, is required.

### Prompt // map F[P-](F)(F)(F)(F)F.O=C1N[C@H]2[C@H](CS[C@H]2CCCCC(=O)c2n[n]([Pt+][c]3cccc(-c4cccc(-c5ccccn5)n4)n3)nc2-c2ccccc2)N1 [Compound 16, [Pt(triazolatoC6H5,biotin)(terpy)]PF6] to recorded Kd (system: streptavidin (Streptomyces avidinii, UniProt P22629))
### Response 0.13

Provenance of the data: paper PMC7616682
